Reference for the values: ChEMBL document CHEMBL1151856

Positions of bridges follow the written chain, without caps; N, C: chain ends. Non-standard residues stand in square brackets, D forms with d. Residues, ends and D or L forms follow the SMILES beside them. Phe(4-CH2NHiPr) = CC(C)NCc1ccc(C[C@H](N)C(=O)O)cc1
Reported IC50 values, Somatostatin receptor type 1 (Homo sapiens, UniProt P30872).
The answer is to be given in nM; state only the numeric part.

Query string: Lab note: record IC50 of CC(C)NCc1ccc(C[C@@H]2NC(=O)[C@@H](Cc3c[nH]c4ccccc34)NC(=O)[C@H](Cc3ccccc3)NC(=O)[C@H](Cc3ccccc3)NC(=O)[C@H](CCCCN)NC(=O)[C@@H](N)CSSC[C@@H](C(=O)O)NC(=O)[C@H](Cc3ccccc3)NC(=O)[C@H]([C@@H](C)O)NC2=O)cc1 (H-CKFF[dW][Phe(4-CH2NHiPr)]TFC-OH; disulfide 1-9) tested on Somatostatin receptor type 1 (Homo sapiens, UniProt P30872).
Sequence (P30872 whole entry): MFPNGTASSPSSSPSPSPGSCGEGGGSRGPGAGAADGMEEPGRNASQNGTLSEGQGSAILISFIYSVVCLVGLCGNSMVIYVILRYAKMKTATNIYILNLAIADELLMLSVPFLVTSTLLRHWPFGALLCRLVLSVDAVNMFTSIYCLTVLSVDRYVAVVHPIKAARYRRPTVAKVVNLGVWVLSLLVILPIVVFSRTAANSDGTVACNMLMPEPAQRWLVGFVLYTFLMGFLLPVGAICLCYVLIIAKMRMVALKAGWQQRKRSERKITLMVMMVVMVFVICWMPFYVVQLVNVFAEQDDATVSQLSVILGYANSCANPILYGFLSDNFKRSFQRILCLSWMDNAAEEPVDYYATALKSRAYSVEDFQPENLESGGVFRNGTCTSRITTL
Result string: 189

Query string: Lab note: record IC50 of "CC(C)NCc1ccc(C[C@@H]2NC(=O)[C@H](N(C)C(=O)c3ccc4ccccc4c3)NC(=O)[C@H](Cc3ccccc3)NC(=O)[C@@H](N)CSSC[C@@H](C(=O)N[C@H](C(N)=O)[C@@H](C)O)NC(=O)[C@H](Cc3ccccc3)NC2=O)cc1" tested on Somatostatin receptor type 1 (Homo sapiens, UniProt P30872).
Result string: 37

====

- target under test: Somatostatin receptor type 5 (Homo sapiens, UniProt P35346)
- Sequence (P35346 whole entry): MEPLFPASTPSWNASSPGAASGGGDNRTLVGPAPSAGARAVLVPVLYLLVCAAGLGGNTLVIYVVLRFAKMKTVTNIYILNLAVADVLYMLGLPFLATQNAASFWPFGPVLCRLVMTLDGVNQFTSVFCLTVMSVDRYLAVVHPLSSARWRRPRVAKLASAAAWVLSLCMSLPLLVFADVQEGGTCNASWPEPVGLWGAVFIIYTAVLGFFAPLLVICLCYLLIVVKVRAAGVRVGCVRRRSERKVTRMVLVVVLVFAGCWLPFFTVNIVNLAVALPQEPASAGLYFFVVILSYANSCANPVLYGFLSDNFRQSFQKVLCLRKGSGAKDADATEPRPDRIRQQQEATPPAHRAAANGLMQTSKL
Positions of bridges follow the written chain, without caps; N, C: chain ends. Non-standard residues stand in square brackets, D forms with d. Residues, ends and D or L forms follow the SMILES beside them. Phe(4-CH2NHiPr) = CC(C)NCc1ccc(C[C@H](N)C(=O)O)cc1
The entries below are paired with their reported IC50.

A selection of reference data follows.
• CC(C)NCc1ccc(C[C@@H]2NC(=O)[C@@H](Cc3c[nH]c4ccccc34)NC(=O)[C@H](Cc3ccccc3)NC(=O)[C@H](Cc3ccccc3)NC(=O)[C@H](CCCCN)NC(=O)[C@@H](N)CSSC[C@@H](C(=O)O)NC(=O)[C@H](CO)NC(=O)[C@H]([C@@H](C)O)NC(=O)[C@H](Cc3ccccc3)NC(=O)[C@H]([C@@H](C)O)NC2=O)cc1 (H-CKFF[dW][Phe(4-CH2NHiPr)]TFTSC-OH; disulfide 1-11) = > 1000 nM
• CC(C)NCc1ccc(C[C@@H]2NC(=O)[C@@H](N(C)C(=O)c3ccc4ccccc4c3)NC(=O)[C@H](Cc3ccccc3)NC(=O)[C@@H](N)CSSC[C@@H](C(=O)N[C@H](C(N)=O)[C@@H](C)O)NC(=O)[C@H](Cc3ccccc3)NC2=O)cc1 = > 1000 nM

Could you now consider this next molecule?
Query string: Lab note: record IC50 of CC(C)NCc1ccc(C[C@@H]2NC(=O)[C@@H](Cc3c[nH]c4ccccc34)NC(=O)[C@H](Cc3ccccc3)NC(=O)[C@H](Cc3ccccc3)NC(=O)[C@H](CCCCN)NC(=O)[C@@H](N)CSSC[C@@H](C(=O)O)NC(=O)[C@H](Cc3ccccc3)NC(=O)[C@H]([C@@H](C)O)NC2=O)cc1 (H-CKFF[dW][Phe(4-CH2NHiPr)]TFC-OH; disulfide 1-9) tested on Somatostatin receptor type 5 (Homo sapiens, UniProt P35346).
Result string: > 1000 nM

====

Reported pIC50 values, UniProt P35346.
pIC50: −log10 of the molar value. Positions of bridges follow the written chain, without caps; N, C: chain ends. Non-standard residues stand in square brackets, D forms with d. Residues, ends and D or L forms follow the SMILES beside them. Phe(4-CH2NHiPr) = CC(C)NCc1ccc(C[C@H](N)C(=O)O)cc1

A selection of reference data follows.
* CC(C)NCc1ccc(C[C@@H]2NC(=O)[C@@H](Cc3c[nH]c4ccccc34)NC(=O)[C@H](Cc3ccccc3)NC(=O)[C@@H](N)CSSC[C@@H](C(=O)N[C@H](C(N)=O)[C@@H](C)O)NC(=O)[C@H](Cc3ccccc3)NC2=O)cc1 (H-CF[dW][Phe(4-CH2NHiPr)]FCT-NH2; disulfide 1-6) | < 6.00
* CC(C)NCc1ccc(C[C@@H]2NC(=O)[C@@H](Cc3c[nH]c4ccccc34)NC(=O)[C@H](Cc3ccccc3)NC(=O)[C@@H](NC(=O)[C@H](N)Cc3ccccc3)CSSC[C@@H](C(=O)N[C@H](C(N)=O)[C@@H](C)O)NC(=O)[C@H](Cc3ccccc3)NC2=O)cc1 (H-[dF]CF[dW][Phe(4-CH2NHiPr)]FCT-NH2; disulfide 2-7) | < 6.00

Could you now consider this next compound?
Query string: Write down pIC50 measured for item "CC(C)NCc1ccc(C[C@@H]2NC(=O)[C@H](N(C)C(=O)c3ccc4ccccc4c3)NC(=O)[C@H](Cc3ccccc3)NC(=O)[C@H](NC(=O)[C@@H](N)Cc3ccc(O)cc3)CSSC[C@@H](C(=O)N[C@@H](Cc3ccc4ccccc4c3)C(N)=O)NC(=O)[C@H](Cc3ccccc3)NC2=O)cc1"
Result string: < 6.00

====

Positions of bridges follow the written chain, without caps; N, C: chain ends. Non-standard residues stand in square brackets, D forms with d. Residues, ends and D or L forms follow the SMILES beside them. Phe(4-CH2NHiPr) = CC(C)NCc1ccc(C[C@H](N)C(=O)O)cc1
Reported IC50 values, Somatostatin receptor type 1 (Homo sapiens, UniProt P30872).
The answer is to be given in nM; state only the numeric part.

A selection of reference data follows.
- CC(C)NCc1ccc(C[C@@H]2NC(=O)[C@@H](Cc3c[nH]c4ccccc34)NC(=O)[C@H](Cc3ccccc3)NC(=O)[C@@H](NC(=O)[C@H](N)Cc3ccccc3)CSSC[C@@H](C(=O)N[C@H](C(N)=O)[C@@H](C)O)NC(=O)[C@H](Cc3ccccc3)NC2=O)cc1 (H-[dF]CF[dW][Phe(4-CH2NHiPr)]FCT-NH2; disulfide 2-7): 14
- CC(C)NCc1ccc(C[C@@H]2NC(=O)[C@@H](Cc3c[nH]c4ccccc34)NC(=O)[C@H](Cc3ccccc3)NC(=O)[C@H](Cc3ccccc3)NC(=O)[C@H](CCCCN)NC(=O)[C@@H](N)CSSC[C@@H](C(=O)O)NC(=O)[C@H](CO)NC(=O)[C@H]([C@@H](C)O)NC(=O)[C@H](Cc3ccccc3)NC(=O)[C@H]([C@@H](C)O)NC2=O)cc1 (H-CKFF[dW][Phe(4-CH2NHiPr)]TFTSC-OH; disulfide 1-11): 31
- CC(C)NCc1ccc(C[C@@H]2NC(=O)[C@@H](N(C)C(=O)c3ccc4ccccc4c3)NC(=O)[C@H](Cc3ccccc3)NC(=O)[C@H](Cc3ccccc3)NC(=O)[C@H](CCCCN)NC(=O)[C@@H](N)CSSC[C@@H](C(=O)O)NC(=O)[C@H](CO)NC(=O)[C@H]([C@@H](C)O)NC(=O)[C@H](Cc3ccc(O)cc3)NC(=O)[C@H]([C@@H](C)O)NC2=O)cc1: 3.3

Could you now consider this next compound?
Query string: Lab note: record IC50 of CC(C)NCc1ccc(C[C@@H]2NC(=O)[C@@H](Cc3c[nH]c4ccccc34)NC(=O)[C@H](Cc3ccccc3)NC(=O)[C@@H](N)CSSC[C@@H](C(=O)N[C@H](C(N)=O)[C@@H](C)O)NC(=O)[C@H](Cc3ccccc3)NC2=O)cc1 (H-CF[dW][Phe(4-CH2NHiPr)]FCT-NH2; disulfide 1-6) tested on Somatostatin receptor type 1 (Homo sapiens, UniProt P30872).
Result string: 108

====

- target under test: Somatostatin receptor type 1 (Homo sapiens)
Positions of bridges follow the written chain, without caps; N, C: chain ends. Non-standard residues stand in square brackets, D forms with d. Residues, ends and D or L forms follow the SMILES beside them. Phe(4-CH2NHiPr) = CC(C)NCc1ccc(C[C@H](N)C(=O)O)cc1
quantity measured: pIC50
Worth noting: pIC50 values are minus log10 of concentrations stated in mol/L.

• CC(C)NCc1ccc(C[C@@H]2NC(=O)[C@@H](N(C)C(=O)c3ccc4ccccc4c3)NC(=O)[C@H](Cc3ccccc3)NC(=O)[C@@H](N)CSSC[C@@H](C(N)=O)NC(=O)[C@H](Cc3ccc(O)cc3)NC2=O)cc1 = 8.33

Could you now consider this next compound?
Query string: Lab note: record pIC50 of CC(C)NCc1ccc(C[C@@H]2NC(=O)[C@@H](Cc3c[nH]c4ccccc34)NC(=O)[C@H](Cc3ccccc3)NC(=O)[C@@H](NC(=O)[C@@H](N)Cc3ccc(O)cc3)CSSC[C@@H](C(=O)N[C@H](C(N)=O)[C@@H](C)O)NC(=O)[C@H](Cc3ccccc3)NC(=O)[C@H]([C@@H](C)O)NC2=O)cc1 (H-YCF[dW][Phe(4-CH2NHiPr)]TFCT-NH2; disulfide 2-8) tested on Somatostatin receptor type 1 (Homo sapiens).
Result string: 6.82
